target: PCSK9 (Homo sapiens (Human)); experiment: PCSK9 Alexa FRET Standard assay (displacement of AlexaFluor647 tagged cyclic peptide Reagent A); format: binding; conditions: PCSK9 Alexa FRET Standard assay, 0.5 nM PCSK9, 20 nM AF cyclic peptide Reagent A; read-out: IC50
Sequence (Q8NBP7 153-692): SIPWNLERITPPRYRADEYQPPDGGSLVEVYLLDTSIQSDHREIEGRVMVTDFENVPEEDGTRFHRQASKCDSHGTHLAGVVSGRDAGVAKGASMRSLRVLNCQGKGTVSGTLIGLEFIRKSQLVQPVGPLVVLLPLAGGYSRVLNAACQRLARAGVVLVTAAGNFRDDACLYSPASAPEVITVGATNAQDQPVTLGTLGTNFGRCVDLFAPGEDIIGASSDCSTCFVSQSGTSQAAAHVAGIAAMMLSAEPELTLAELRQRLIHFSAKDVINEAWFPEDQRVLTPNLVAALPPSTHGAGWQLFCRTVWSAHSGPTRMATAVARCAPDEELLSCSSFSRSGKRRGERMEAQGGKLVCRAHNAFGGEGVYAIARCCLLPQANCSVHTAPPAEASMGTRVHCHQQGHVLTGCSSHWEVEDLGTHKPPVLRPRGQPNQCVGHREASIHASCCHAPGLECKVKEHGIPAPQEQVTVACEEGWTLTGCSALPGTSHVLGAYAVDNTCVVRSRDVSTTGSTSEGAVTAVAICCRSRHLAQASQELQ
Starred links: 1 amine or outer side, 2 acyl side, 3 side chain; linkers in the order of their positions; H or OH if unused. Positions of bridges follow the written chain, without caps; N, C: chain ends. Non-standard residues stand in square brackets, D forms with d. Residues, ends and D or L forms follow the SMILES beside them. Phe(3-CH2NH2) = O=C([C@H](Cc1cccc(CN[*:3])c1)N[*:1])[*:2]; X25 = O=C([C@H](Cc1cccc(OCC=[*:3])c1)N[*:1])[*:2]; X26 = O=C([C@@H]1[C@@H](OCC=[*:3])CCN1[*:1])[*:2]; Ala(imidazol-2-yl) = N[C@@H](Cc1ncc[nH]1)C(=O)O; Trp(5-F) = N[C@@H](Cc1c[nH]c2ccc(F)cc12)C(=O)O; X11 = COc1ccc(C[C@H](N[*:1])C(=O)[*:2])cc1C; X3 = O=C(CCSCc1cc(F)cc(CSCCN[*:1])c1)[*:2]; X4 = O=C(CCSCc1cccc(CSCCN[*:1])c1)[*:2]; Adipoyl = O=C(CCCCC(=O)[*:2])[*:1]; Lys(Me2) = CN(C)CCCC[C@H](N)C(=O)O; αMeP = C[C@@]1(C(=O)O)CCCN1
measure: IC50

Example cases with answers are listed next.
COc1ccc(C[C@@H]2NC(=O)[C@H](Cc3c[nH]cn3)NC(=O)[C@H](CC(=O)O)NC(=O)[C@H](Cc3c[nH]c4ccc(F)cc34)NC(=O)[C@H](Cc3c[nH]c4ccc(F)cc34)NC(=O)[C@@H](C)NC(=O)[C@H](CCCCN)NC(=O)CCSCc3cccc(c3)CSCCNC(=O)[C@]3(C)CCCN3C2=O)cc1C [Compound 387] (cyclo(DH[X11][αMeP][X4]K[dA][Trp(5-F)][Trp(5-F)]))
0.1 to 1 µM
COc1ccc(C[C@@H]2NC(=O)[C@H](Cc3ncc[nH]3)NC(=O)[C@H](CC(=O)O)NC(=O)[C@H](Cc3c[nH]c4ccc(F)cc34)NC(=O)[C@H](Cc3c[nH]c4ccc(F)cc34)NC(=O)[C@@H](C)NC(=O)[C@H](CCCCN(C)C)NC(=O)CCSCc3cc(F)cc(c3)CSCCNC(=O)[C@]3(C)CCCN3C2=O)cc1 [Compound 466] (cyclo(D[Ala(imidazol-2-yl)]Y(Me)[αMeP][X3][Lys(Me2)][dA][Trp(5-F)][Trp(5-F)]))
0.1 to 1 µM
COc1ccc(C[C@@H]2NC(=O)[C@@H]3CCCC/C=C\CC[C@@]4(CCCN4C2=O)C(=O)NCCSCc2cccc(c2)CSCCC(=O)N[C@@H](C)C(=O)N[C@H](C)C(=O)N[C@H]2Cc4cccc(c4)CNC(=O)CC[C@@H](C(=O)N3)N3C(=O)[C@@H](NC2=O)C3c2c[nH]c3ccc(F)cc23)cc1 (stereo partly drawn)
0.1 to 1 µM

Consider the following items and state reported IC50 for each.
1. COc1ccc(C[C@@H]2NC(=O)[C@H]([C@@H](C)O)NC(=O)[C@@H]3[C@@H]4CCN3C(=O)[C@H](Cc3c[nH]c5ccc(F)cc35)NC(=O)[C@H](Cc3cccc(c3)OC/C=C/CO4)NC(=O)[C@@H](C)NC(=O)[C@H](C)NC(=O)CCSCc3cccc(c3)CSCCNC(=O)[C@]3(C)CCCN3C2=O)cc1 [Compound 516] (cyclo(A[dA][X25][Trp(5-F)][X26]TY(Me)[αMeP][X4]); staple (E) 3-5)
2. COc1ccc(C[C@@H]2NC(=O)[C@H]([C@@H](C)O)NC(=O)[C@@H]3CC[C@H](F)N3C(=O)[C@H](Cc3c[nH]c4ccc(F)cc34)NC(=O)[C@H](Cc3c[nH]c4ccc(F)cc34)NC(=O)[C@@H](C)NC(=O)c3ccc(cc3)-c3ccc(cc3)CNCc3ccc(cc3)C[C@@H](C(N)=O)NC(=O)[C@]3(C)CCCN3C2=O)cc1

1. 0.00011 to 0.1 µM
2. 1 to 12.1 µM

What value of IC50 has been recorded for this entry: NC(=O)[C@@H]1Cc2cccc(c2)CNC(=O)CCCCC(=O)NCC(=O)N[C@@H](Cc2c[nH]c3ccc(F)cc23)C(=O)N[C@@H](Cc2c[nH]c3ccc(F)cc23)C(=O)N[C@@H](CC(=O)O)C(=O)N[C@@H](Cc2cnc[nH]2)C(=O)N[C@@H](Cc2ccc(O)cc2)C(=O)N1 [Compound 457] (G[Trp(5-F)][Trp(5-F)]DHY[Phe(3-CH2NH2)]-NH2; linker N-7 via Adipoyl)
21 to 50 µM

Taken from patent US11530244B2.
